Test system: S. parasitica T-1
Test: Broth macrodilution susceptibility testing (zoospores and cysts)
Type: cell-based, Saprolegnia parasitica
Settings: S. parasitica T-1; 24 h, 15-20° C.; geometric mean of three tests
Result type: MIC, Macrodilution (mg/L)

* C[C@@H]1[C@H](O)[C@@H](C)/C=C/C=C/C=C/C=C/C=C/C=C/C=C/[C@H](O[C@@H]2O[C@H](C)[C@@H](O)[C@H](N)[C@@H]2O)C[C@@H]2O[C@](O)(C[C@@H](O)C[C@@H](O)[C@H](O)CC[C@@H](O)C[C@@H](O)CC(=O)O[C@H]1C)C[C@H](O)[C@H]2C(=O)O [Amphotericin B] | 0.5
* O=S(=O)([O-])c1cc(Nc2nc(Nc3ccccc3)nc(N(CCO)CCO)n2)ccc1C=Cc1ccc(Nc2nc(Nc3ccccc3)nc(N(CCO)CCO)n2)cc1S(=O)(=O)[O-].[Na+].[Na+] [Fluorescent Brightener 28] | 1

Data credit: patent US8377934B2
